Tested on: lysine peptide Ac-RFAAKAA-COOH
protocol_summary: efficacy of lysine peptide change (negative = depletion) (% activity); higher = less depletion
details: incubation time: 24 h
I'd be grateful if you could share measured efficacy of lysine peptide change for these entries.
Answer with the value's number alone.

## Task # return recorded efficacy of lysine peptide change for entry COc1cc(C(C)C)c2c(c1)S(=O)(=O)N(COc1cc(=O)n3cccc(OCCN4CCCCC4)c3n1)C2=O
## Result -2.72

## Task # return recorded efficacy of lysine peptide change for entry COP(=O)(O)OP(=O)(O)OC [Dimethyl dihydrogen diphosphate]
## Result 4.84

## Task # return recorded efficacy of lysine peptide change for entry COc1ccc(-c2cc(=S)ss2)cc1 [Anethole trithione]
## Result -0.11

## Task # return recorded efficacy of lysine peptide change for entry COc1ccc(C(=O)/C(Br)=C\C(=O)O)cc1 [Cytembena]
## Result 12.2

## Task # return recorded efficacy of lysine peptide change for entry O=C1C(Cl)=C(Cl)C(=O)C(Cl)=C1Cl [Chloranil]
## Result -124

## Task # return recorded efficacy of lysine peptide change for entry Cl/C=C\C[N+]12CN3CN(CN(C3)C1)C2 [Chloroallyl methenamine chloride]
## Result -14.5

## Task # return recorded efficacy of lysine peptide change for entry C[C@]12CC[C@H](O)C[C@H]1CC[C@@H]1[C@@H]2C[C@@H](O)[C@]2(C)[C@@H](C3=CC(=O)OC3)CC[C@]12O [Digoxigenin]
## Result 68.2

## Task # return recorded efficacy of lysine peptide change for entry Oc1ccc2ccccc2c1N=Nc1ccccc1 [C.I. Solvent Yellow 14]
## Result -31.1

## Task # return recorded efficacy of lysine peptide change for entry Clc1ccc(C(Cn2ccnc2)OCc2c(Cl)cccc2Cl)c(Cl)c1 (stereo not drawn) [Isoconazole]
## Result 65.7

## Task # return recorded efficacy of lysine peptide change for entry O=C(Oc1ccccc1)c1cccc(C(=O)Oc2ccccc2)c1 [Diphenyl isophthalate]
## Result -2

## Task # return recorded efficacy of lysine peptide change for entry c1ccc2cc3c(ccc4ccccc43)cc2c1 [Benz(a)anthracene]
## Result -36.8

## Task # return recorded efficacy of lysine peptide change for entry C[C@@H]1O[C@@H](O[C@@H]2C=C3CC[C@@H]4[C@H](CC[C@]5(C)[C@@H](c6ccc(=O)oc6)CC[C@]45O)[C@@]3(C)CC2)[C@H](O)[C@H](O)[C@H]1O [Proscillaridin]
## Result 14.3

## Task # return recorded efficacy of lysine peptide change for entry Nc1ccccc1N [1,2-Phenylenediamine*]
## Result 7.79

## Task # return recorded efficacy of lysine peptide change for entry O=C1OC(OC(=O)c2cccnc2Nc2cccc(C(F)(F)F)c2)c2ccccc21 (stereo not drawn) [Talniflumate]
## Result 85.3

## Task # return recorded efficacy of lysine peptide change for entry [CH3][Hg][Cl] [Methyl mercuric (II) chloride]
## Result 0

## Task # return recorded efficacy of lysine peptide change for entry CCCCOCCOCCOCCO [2-[2-(2-Butoxyethoxy)ethoxy]ethanol]
## Result 207

## Task # return recorded efficacy of lysine peptide change for entry Nc1ccc2cc3ccccc3cc2c1 [2-Aminoanthracene]
## Result -21.2

## Task # return recorded efficacy of lysine peptide change for entry ClC1=C(Cl)C2(Cl)C3C(Cl)C(Cl)CC3C1(Cl)C2(Cl)Cl (stereo not drawn) [Chlordane]
## Result -2.38

* * *

Test system: lysine peptide Ac-RFAAKAA-COOH
protocol_summary: efficacy of lysine peptide change (negative = depletion) (% activity); higher = less depletion
details: incubation time: 24 h
# binning rule on efficacy of lysine peptide change: low = under -8, medium = from -8 up to 40, high = 40 and over

## Task Kindly state the category for this compound: CCCCCCCCCCCC(=O)NCCCN(C)C [N-[3-(Dimethylamino)propyl]dodecanamide]
## Result high

## Task Kindly state the category for this compound: CCCCCCCCCCC=CC1CC(=O)OC1=O (stereo not drawn) [3-(Dodecenyl)dihydro-2,5-furandione]
## Result low

## Task Kindly state the category for this compound: c1cc(N(CC2CO2)CC2CO2)ccc1OCC1CO1 (stereo not drawn) [4-(Diglycidylamino)phenyl glycidyl ether]
## Result high

## Task Kindly state the category for this compound: NCCc1ccc(O)cc1 [Tyramine]
## Result medium

## Task Kindly state the category for this compound: Cc1ccc(O)c(-n2nc3ccccc3n2)c1 [2-(2H-Benzotriazol-2-yl)-4-methylphenol]
## Result medium

## Task Kindly state the category for this compound: Cc1cc(C2CC2)nc(Nc2ccccc2)n1 [Cyprodinil]
## Result high

## Task Kindly state the category for this compound: CC1=C(/C=C/C(C)=C/C=C/C(C)=C/C=O)C(C)(C)CCC1 [13-cis-Retinal (Vitamin A aldehyde)]
## Result medium

## Task Kindly state the category for this compound: OC[P+](CO)(CO)CO [Tetrakis(hydroxymethyl)phosphonium SO4]
## Result low

## Task Kindly state the category for this compound: O=C(NS(=O)(=O)/C=C/c1cccs1)c1ccc(F)cc1Br
## Result high

## Task Kindly state the category for this compound: Nc1ccc(Cl)cc1N [4-Chloro-1,2-diaminobenzene*]
## Result medium

## Task Kindly state the category for this compound: CCCCCCCCCCCCOCCO [2-(Dodecyloxy)ethanol]
## Result medium

## Task Kindly state the category for this compound: S=C(NC1CCCCC1)NC1CCCCC1 [N,N'-Dicyclohexylthiourea]
## Result low

## Task Kindly state the category for this compound: CCCOc1ccc2[nH]c(NC(=O)OC)nc2c1 [Oxibendazole]
## Result high

## Task Kindly state the category for this compound: CCC(C)(CC)c1cc(NC(=O)c2c(OC)cccc2OC)on1 [Isoxaben]
## Result high

## Task Kindly state the category for this compound: CN(C)c1ccc(N(C)C)cc1 [*N,N,N',N'-Tetramethyl-p-phenylenediamine]
## Result low

## Task Kindly state the category for this compound: CC(=O)Oc1ccc(C2(c3ccc(OC(C)=O)cc3)C(=O)Nc3ccccc32)cc1 [Oxyphenisatin acetate]
## Result medium

## Task Kindly state the category for this compound: COc1cccc2c1C(=O)c1c(O)c3c(c(O)c1C2=O)C[C@@](O)(C(=O)CO)C[C@@H]3O[C@H]1C[C@H](N)[C@H](O[C@@H]2CCCCO2)[C@H](C)O1 [Pirarubicin*]
## Result low

* * *

Test system: cysteine peptide Ac-RFAACAA-COOH
protocol_summary: efficacy of cysteine peptide change (negative = depletion) (% activity); higher = less depletion
details: incubation time: 24 h
I'd be grateful if you could share measured efficacy of cysteine peptide change for these entries.
Answer with the value's number alone.

## Task # return recorded efficacy of cysteine peptide change for entry COc1ccc(C(=O)/C(Br)=C\C(=O)O)cc1 [Cytembena]
## Result -95.5

## Task # return recorded efficacy of cysteine peptide change for entry CCCCCCCC/C=C\CCCCCCCC(=O)N(C)CC(=O)O [Oleyl sarcosine]
## Result -5.45

## Task # return recorded efficacy of cysteine peptide change for entry Clc1ccc(C(Cn2ccnc2)OCc2ccc(Sc3ccccc3)cc2)c(Cl)c1 (stereo not drawn) [Fenticonazole nitrate]
## Result -8.26

## Task # return recorded efficacy of cysteine peptide change for entry CCCCc1ccc2[nH]c(NC(=O)OC)nc2c1 [Parbendazole*]
## Result -4.47

## Task # return recorded efficacy of cysteine peptide change for entry CC(C)(C)c1cc(O)c(C(C)(C)C)cc1O [2,5-Di-tert-butylbenzene-1,4-diol]
## Result -80.8

## Task # return recorded efficacy of cysteine peptide change for entry O=C1OC(OC(=O)c2cccnc2Nc2cccc(C(F)(F)F)c2)c2ccccc21 (stereo not drawn) [Talniflumate]
## Result -29.7

## Task # return recorded efficacy of cysteine peptide change for entry C[C@@H]1O[C@@H](O[C@H]2C[C@@H](O)[C@]3(CO)[C@H]4[C@H](O)C[C@]5(C)[C@@H](C6=CC(=O)OC6)CC[C@]5(O)[C@@H]4CC[C@]3(O)C2)[C@H](O)[C@H](O)[C@H]1O [Ouabain]
## Result 3.17

## Task # return recorded efficacy of cysteine peptide change for entry O=C(O)Cn1c(C(=O)Nc2nc(-c3ccccc3Cl)cs2)cc2ccccc21 [Lintitript]
## Result 1.07

## Task # return recorded efficacy of cysteine peptide change for entry Oc1c(I)cc(Cl)c2cccnc12 [Clioquinol]
## Result -68.8

## Task # return recorded efficacy of cysteine peptide change for entry O=c1[nH]sc2cc(Cl)ccc12 [Ticlatone]
## Result -90.5

## Task # return recorded efficacy of cysteine peptide change for entry Cc1ccc(N=C=O)cc1N=C=O [Toluene-2,4-diisocyanate]
## Result -19.2

## Task # return recorded efficacy of cysteine peptide change for entry CCCOC/C(=N\c1ccc(Cl)cc1C(F)(F)F)n1ccnc1 [Triflumizole]
## Result 4.17

## Task # return recorded efficacy of cysteine peptide change for entry C=C(C)C(=O)Nc1ccc(Cl)c(Cl)c1 [Chloranocryl]
## Result 4.33

## Task # return recorded efficacy of cysteine peptide change for entry CCc1oc2ccccc2c1C(=O)c1cc(I)c(O)c(I)c1 [Benziodarone]
## Result -8.72

## Task # return recorded efficacy of cysteine peptide change for entry O=C(O)c1cc(O)c2ccccc2c1O [1,4-dihydroxy-2-naphthoic acid*]
## Result -105

## Task # return recorded efficacy of cysteine peptide change for entry c1cc(N(CC2CO2)CC2CO2)ccc1OCC1CO1 (stereo not drawn) [4-(Diglycidylamino)phenyl glycidyl ether]
## Result -36.5

## Task # return recorded efficacy of cysteine peptide change for entry CN(C)c1ccc(N)cc1 [N,N-Dimethyl-p-phenylenediamine]
## Result -130

## Task # return recorded efficacy of cysteine peptide change for entry [OH-].c1cc[c]([Sn+]([c]2ccccc2)[c]2ccccc2)cc1 [Triphenyltin hydroxide]
## Result -39.1

Taken from the supplement of paper PMC10933113.
